- ASSAYED_TARGET: Human M4 receptors (Homo sapiens)
- Sequence (P08173 whole entry): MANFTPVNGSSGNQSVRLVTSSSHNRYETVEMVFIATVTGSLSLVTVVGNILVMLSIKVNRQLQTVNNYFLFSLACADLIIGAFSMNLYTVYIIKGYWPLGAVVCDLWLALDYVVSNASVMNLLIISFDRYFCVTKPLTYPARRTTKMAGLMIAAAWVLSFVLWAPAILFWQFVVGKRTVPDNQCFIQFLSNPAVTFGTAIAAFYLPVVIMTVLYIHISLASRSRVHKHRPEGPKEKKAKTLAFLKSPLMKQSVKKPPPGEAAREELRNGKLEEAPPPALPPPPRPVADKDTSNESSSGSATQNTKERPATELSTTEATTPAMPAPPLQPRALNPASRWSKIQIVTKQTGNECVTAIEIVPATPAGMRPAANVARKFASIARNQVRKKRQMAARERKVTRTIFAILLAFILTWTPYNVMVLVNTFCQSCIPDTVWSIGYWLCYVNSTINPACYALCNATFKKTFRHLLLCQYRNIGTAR
- METHOD: M4 PAM cAMP assay (GloSensor)
- TEST_CONDITIONS: HEK293 GloSensor cells expressing hM4; with EC20 acetylcholine and isoproterenol; geometric mean of 2-4 determinations unless otherwise indicated
Field: EC50. Provide a value for each of the compounds that follow.
One number for each entry, in nM.

Below, each entry is followed by its recorded EC50 result.
-- ask Quote EC50 reported for Cc1nc2c(c(C)c1Cl)CN(C(=O)OC1CN(c3ncns3)C1)C2 [Example 67] please.
-- reply 18.5

-- ask Name the recorded EC50 of the item COc1nc2c(c(C)c1C)CN(C(=O)CC1CN(c3cncnc3)C1)C2 [Example 29] in your answer.
-- reply 26.1

-- ask Please indicate EC50 recorded for Cc1cc(C)c2c(n1)CN(C(=O)CC1CN(c3ccc(C(O)C4CC4)cc3)C1)C2 (centres unmarked) [Example 73]
-- reply 90.5

Take each entry in turn and give its EC50.
1. COCc1cc(C)c2c(n1)CN(C(=O)CC1CN(c3ccnc(C(F)F)c3)C1)C2 [Example 50]
2. Cc1cc(C)c2c(n1)CN(C(=O)CC1CN(c3ccnnc3)C1)C2 [Example 30]
3. Cc1cc(CO)nc2c1CN(C(=O)CC1CN(c3ccnc(C(F)(F)F)c3)C1)C2 [Example 33]

-- reply
14.3
30.3
14

// for each compound below, give its EC50
1. CNC(=O)c1ccc(N2CC(CC(=O)N3Cc4nc(C)cc(C)c4C3)C2)cc1 [Example 75]
2. Cc1nc2c(c(C)c1Cl)CN(C(=O)CC1CN(c3cccnc3)C1)C2 [Example 13]
3. Cc1cc(C(F)F)nc2c1CN(C(=O)CC1CN(c3ccnc(OC(F)F)c3)C1)C2 [Example 25]
4. COc1cc(C)c2c(n1)CN(C(=O)CC1CN(c3cccnc3)C1)C2 [Example 21]

-- reply
105
2.04
25.7
23.9

Would you mind listing EC50 for each of the following compounds?
1. COCc1cc(C)c2c(n1)CN(C(=O)CC1CN(c3cncnc3)C1)C2 [Example 31]
2. COCc1nc2c(c(C)c1Cl)CN(C(=O)CC1CN(c3ccc(F)nc3)C1)C2 [Example 49]
3. Cc1cc(C)c2c(n1)CN(C(=O)C[C@H]1C[C@@H]1c1ccc3cncnc3c1)C2 (racemic) [Example 76]
4. Cc1ccc([C@H]2C[C@@H]2CC(=O)N2Cc3nc(C(F)F)cc(C)c3C2)cn1 [Example 18]
5. COc1ccc(N2CC(CC(=O)N3Cc4nc(C)cc(C)c4C3)C2)cc1CC#N [Example 74]
6. Cc1cc(C(F)F)nc2c1CN(C(=O)CC1CN(c3ccnc(C(F)F)c3)C1)C2 [Example 45]
7. Cc1c(C(F)F)nc2c(c1C)CN(C(=O)OC1CN(c3ncns3)C1)C2 [Example 63]
8. COCc1nc2c(c(C)c1Cl)CN(C(=O)CC1CN(c3ccnc(OC(F)F)c3)C1)C2 [Example 52]

-- reply
1: 17.8; 2: 11.2; 3: 1400; 4: 37.7; 5: 460; 6: 15.6; 7: 42.4; 8: 4.68

Below are some compounds; for each one, tell me its EC50.
1. COCc1cc(C)c2c(n1)CN(C(=O)CC1CN(c3ccnc(C(F)(F)F)c3)C1)C2 [Example 7]
2. Cc1cc(C)c2c(n1)CN(C(=O)CC1CN(c3ccc(C4CC4)cc3)C1)C2 [Example 72]
3. Cc1c(C(F)F)nc2c(c1C)CN(C(=O)CC1CN(c3ccnc(OC(F)F)c3)C1)C2 [Example 10]

-- reply
1: 17.4; 2: 537; 3: 28.9

Consider the following items and state reported EC50 for each.
1. Cc1cc(C)c2c(n1)CN(C(=O)CC1CN(c3ccc(CO)cc3)C1)C2 [Example 71]
2. COc1nc2c(c(C)c1Cl)CN(C(=O)CC1CN(c3cccnc3)C1)C2 [Example 22]
3. Cc1cc(C)c2c(n1)CN(C(=O)CC1Cc3ccccc3C1)C2 [Example 56]
4. Cc1cc(CO)nc2c1CN(C(=O)CC1CN(c3ccncn3)C1)C2 [Example 24]
5. Cc1nc2c(c(C)c1C)CN(C(=O)OC1CN(c3nncs3)C1)C2 [Example 65]
6. Cc1nc2c(c(C)c1C)CN(C(=O)CC1CN(c3cccnc3)C1)C2 [Example 23]
7. Cc1cc(C)c2c(n1)CN(C(=O)OC1CN(c3nncs3)C1)C2 [Example 62]

-- reply
1. 195
2. 4.82
3. 209
4. 31
5. 62.6
6. 6.23
7. 95.7

-- ask Entry Cc1cc(C)c2c(n1)CN(C(=O)CC1CN(c3cccnc3)C1)C2C (single isomer, unassigned) [Example 15] needs its EC50 filled in; supply it.
-- reply 28
